These data points were gathered from paper PMC12416549.

Target: T1, TNFR1 (Homo sapiens, UniProt P19438)
T1 chain: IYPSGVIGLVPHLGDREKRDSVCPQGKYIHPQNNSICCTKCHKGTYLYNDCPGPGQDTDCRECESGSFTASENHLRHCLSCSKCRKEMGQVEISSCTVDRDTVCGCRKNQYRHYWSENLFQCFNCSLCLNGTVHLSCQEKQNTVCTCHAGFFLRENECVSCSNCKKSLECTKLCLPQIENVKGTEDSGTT
Assay: yeast display SC50
MEASUREMENT_TYPE: apparent Kd (screen) (nM)

BINDER	apparent Kd (screen) [nM]
R50W (designed binder) MTLQELLREEALRRAEAEAFRYALELLAEKFPEQKEYLLDLAEEIESQIWSLSGVDVEDVRKFLDKEWAWVKELLAEHPAELAEVEAARAARLAELRAEVEAKVAA	2.73

a: L64K (designed binder) MTLQELLREEALRRAEAEAFRYALELLAEKFPEQKEYLLDLAEEIESQIRSLSGVDVEDVRKFKDKEWAWVKELLAEHPAELAEVEAARAARLAELRAEVEAKVAA
b: Q34W (designed binder) MTLQELLREEALRRAEAEAFRYALELLAEKFPEWKEYLLDLAEEIESQIRSLSGVDVEDVRKFLDKEWAWVKELLAEHPAELAEVEAARAARLAELRAEVEAKVAA
q: Sort a and b by apparent Kd (screen) descending and give the first. Could you answer with the label of the item you picked?
a: a
(a: 20.2 nM, b: 1.69 nM)

A: E77L (designed binder) MTLQELLREEALRRAEAEAFRYALELLAEKFPEQKEYLLDLAEEIESQIRSLSGVDVEDVRKFLDKEWAWVKELLALHPAELAEVEAARAARLAELRAEVEAKVAA
B: A87Q (designed binder) MTLQELLREEALRRAEAEAFRYALELLAEKFPEQKEYLLDLAEEIESQIRSLSGVDVEDVRKFLDKEWAWVKELLAEHPAELAEVEQARAARLAELRAEVEAKVAA
q: Hi, I'm comparing two records. Which one has the lower apparent Kd (screen), A or B ? Could you answer with the label of the item you picked?
a: A
